In this section we review reported inhibition of growth at 0.5 µg/mL values for a set of compounds.
Tested on: DU-145
Assay: Antiproliferative activity against human DU145 cells assessed as growth inhibition at 0.5 ug/mL after 48 hrs by MTT assay relative to control
Format: functional
Conditions: DU-145, 48 h, read-out: GI

compound | inhibition of growth at 0.5 µg/mL
Cc1ccc(C(=O)O[C@H]2CC[C@@]3(C)C(=CC[C@@H]4[C@@H]3CC[C@]3(C)NC(=O)CC[C@@H]43)C2)cc1 | 29.5%
C[C@]12CC[C@H](OC(=O)c3ccc(N)cc3)CC1=CC[C@@H]1[C@@H]2CC[C@]2(C)NC(=O)CC[C@@H]12 | 43.4%
C[C@]12CC[C@H](OC(=O)c3ccccc3)CC1=CC[C@@H]1[C@@H]2CC[C@]2(C)NC(=O)CC[C@@H]12 | 35.7%
C[C@]12CC[C@H](OC(=O)c3ccc(O)cc3)CC1=CC[C@@H]1[C@@H]2CC[C@]2(C)NC(=O)CC[C@@H]12 | 51.4%
COc1ccc(C(=O)O[C@H]2CC[C@@]3(C)C(=CC[C@@H]4[C@@H]3CC[C@]3(C)NC(=O)CC[C@@H]43)C2)cc1 | 25.2%
CC(C)(C)NC(=O)[C@H]1CC[C@H]2[C@@H]3CC[C@H]4NC(=O)C=C[C@]4(C)[C@H]3CC[C@]12C [FINASTERIDE] | 8.83%

---

This section presents compounds with their documented inhibition of growth at 2 µg/mL values.
System: DU-145
Test: Antiproliferative activity against human DU145 cells assessed as growth inhibition at 2 ug/mL after 48 hrs by MTT assay relative to control
Format: functional
Settings: DU-145, 48 h, read-out: GI

sample smiles | measure unit | inhibition of growth at 2 µg/mL
C[C@]12CC[C@H](OC(=O)c3ccc(Cl)cc3)CC1=CC[C@@H]1[C@@H]2CC[C@]2(C)NC(=O)CC[C@@H]12 | % | 49.4
C[C@]12CC[C@H](OC(=O)c3ccc([N+](=O)[O-])cc3)CC1=CC[C@@H]1[C@@H]2CC[C@]2(C)NC(=O)CC[C@@H]12 | % | 73.5
Cc1ccc(C(=O)O[C@H]2CC[C@@]3(C)C(=CC[C@@H]4[C@@H]3CC[C@]3(C)NC(=O)CC[C@@H]43)C2)cc1 | % | 68.1

Data credit: ChEMBL document CHEMBL1165859
